# ASSAY_NOTES: Dissociation constant, pKa of the compound
# Assay type: physicochemical
MEASURED_ENDPOINT: pKa
A bare number is all that is needed in reply.

What the record says about C=C(C)[C@@H]1CC[C@]2(CNCCCN3CCS(=O)(=O)CC3)CC[C@]3(C)[C@H](CC[C@@H]4[C@@]5(C)CC=C(c6ccc(C(=O)O)cc6)C(C)(C)[C@@H]5CC[C@]43C)[C@@H]12 : pKa is 4.5

* * *

# ASSAY_NOTES: AUCtotal in dog at 1.85 mg/kg administered via oral gavage by LC-MS/MS analysis
# Format: ADME, organism-based, Canis lupus familiaris
# Design: dose 1.85 mg/kg, time AUCmax, route oral
# MEASUREMENT_PARAMETERS: in vivo
MEASURED_ENDPOINT: AUC

What the record says about C=C(C)[C@@H]1CC[C@]2(NCCN3CCS(=O)(=O)CC3)CC[C@]3(C)[C@H](CC[C@@H]4[C@@]5(C)CC=C(c6ccc(C(=O)O)cc6)C(C)(C)[C@@H]5CC[C@]43C)[C@@H]12 : AUC is 29.4 µM·h

* * *

# ASSAY_NOTES: AUCtotal in Cynomolgus monkey at 2 mg/kg administered via oral gavage by LC-MS/MS analysis
# Assay type: ADME, organism-based, Macaca fascicularis
# Parameters: dose 2 mg/kg, route oral, time AUCmax
# MEASUREMENT_PARAMETERS: in vivo
MEASURED_ENDPOINT: AUC (µM·h)
State just the number; it will be interpreted in µM·h.

What the record says about C=C(C)[C@@H]1CC[C@]2(NCCN3CCS(=O)(=O)CC3)CC[C@]3(C)[C@H](CC[C@@H]4[C@@]5(C)CC=C(c6ccc(C(=O)O)cc6)C(C)(C)[C@@H]5CC[C@]43C)[C@@H]12 : AUC is 0.995

* * *

# ASSAY_NOTES: Oral bioavailability in rat at 5 mg/kg by LC-MS/MS analysis
# Format: ADME, organism-based
# MEASUREMENT_PARAMETERS: in vivo
MEASURED_ENDPOINT: bioavailability (%)
State just the number; it will be interpreted in %.

What the record says about C=C(C)[C@@H]1CC[C@]2(NCCN3CCS(=O)(=O)CC3)CC[C@]3(C)[C@H](CC[C@@H]4[C@@]5(C)CC=C(c6ccc(C(=O)O)cc6)C(C)(C)[C@@H]5CC[C@]43C)[C@@H]12 : bioavailability is 26

* * *

# ASSAY_NOTES: Half life in iv dosed Cynomolgus monkey by LC-MS/MS analysis
# Type: ADME, organism-based, Macaca fascicularis
# MEASUREMENT_PARAMETERS: in vivo
MEASURED_ENDPOINT: half-life (h)
State just the number; it will be interpreted in h.

What the record says about C=C(C)[C@@H]1CC[C@]2(NCCN3CCS(=O)(=O)CC3)CC[C@]3(C)[C@H](CC[C@@H]4[C@@]5(C)CC=C(c6ccc(C(=O)O)cc6)C(C)(C)[C@@H]5CC[C@]43C)[C@@H]12 : half-life is 8.6

* * *

# ASSAY_NOTES: Drug level in dog at 1.85 mg/kg administered via oral gavage after 24 hrs by LC-MS/MS analysis
# Type: ADME, organism-based, Canis lupus familiaris
# MEASUREMENT_PARAMETERS: in vivo, read-out: Drug uptake
MEASURED_ENDPOINT: concentration at 24 h (nM)
State just the number; it will be interpreted in nM.

What the record says about C=C(C)[C@@H]1CC[C@]2(NCCN3CCS(=O)(=O)CC3)CC[C@]3(C)[C@H](CC[C@@H]4[C@@]5(C)CC=C(c6ccc(C(=O)O)cc6)C(C)(C)[C@@H]5CC[C@]43C)[C@@H]12 : concentration at 24 h is 559

Entry source: ChEMBL document CHEMBL3826912
